Values compiled from ChEMBL document CHEMBL3272114.

test system: Mus musculus; test: Toxicity in mouse infected with Plasmodium berghei assessed as animal death at 640 mg/kg, sc; format: organism-based; parameters: dose 640 mg/kg, route subcutaneous; conditions: in vivo
endpoint: Activity

{"columns": ["compound", "assay-value"],
 "data": [
  ["COc1cc(NC(C)CCCCN)c2nccc(C)c2c1.O=P(O)(O)O (stereo not given)", "Non-toxic"],
  ["COc1cc(NCCCN)c2nccc(C)c2c1.Cl", "Toxic"],
  ["COc1cc([N+](=O)[O-])c2nccc(Oc3ccc(Cl)cc3)c2c1", "Non-toxic"],
  ["COc1cc(NC(C)CCCN)c2nccc(C)c2c1 (stereo not given)", "Toxic"],
  ["COc1cc(NC(C)CCCN)c2ncccc2c1 (stereo not given)", "Toxic"]
]}

* * *

MST values, listed per item
tested on: Plasmodium berghei; experiment: Antimalarial activity against Plasmodium berghei infected in mouse assessed as change in mean survival time at 40 mg/kg, sc by Rane test; type: functional; settings: route subcutaneous

{"columns": ["compound", "MST"],
 "data": [
  ["COc1cc(NC(C)CCCCN)c2nccc(C)c2c1.O=P(O)(O)O (centres undefined)", "7 days"],
  ["COc1cc([N+](=O)[O-])c2nccc(Oc3ccc(Cl)cc3)c2c1", "6.1 days"],
  ["COc1cc(NC(C)CCCN)c2ncccc2c1 (centres undefined)", "5 days"],
  ["COc1cc(NC(C)CCCN)c2nccc(SC)c2c1 (centres undefined)", "0.1 days"]
]}
